The measured values listed here are drawn from PubChem BioAssay AID1159580.

Assay: chemical genetic growth profiling, strain panel (AID 1159580);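 note: tested at 20 µM; growth read once vehicle control cultures reached saturation at 30 °C; 1 = growth at the plate median or of vehicle wells; lower values mean less growth of the strain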
Conditions: S. cerevisiae deletion strains, growth OD, locus YFL009W, strain cdc4, active compounds read low
About 2,000 (36%) of roughly 5,500 compounds were called active. Not shown: some 18% with an inconclusive outcome. The list shows a part of the results.
measured_attribute: normalized growth
Output spec: single numeric token, no unit.

Returns the measured normalized growth for the input compound. Input: N#Cc1cccc(CSc2nc3ccc(C(F)(F)F)cc3[nH]2)c1
0.974

Returns the measured normalized growth for the input compound. Input: Cc1c(S(=O)(=O)Nc2cccc([N+](=O)[O-])c2)sc2ccc(Cl)cc12
0.97

Returns the measured normalized growth for the input compound. Input: N#Cc1ccc(Oc2sccc2[N+](=O)[O-])cc1
0.908

Returns the measured normalized growth for the input compound. Input: COc1ccc(-c2csc(-c3cccnc3)n2)cc1
0.954

Returns the measured normalized growth for the input compound. Input: Clc1ccc(CSc2nccn2-c2cc(Cl)ccc2Cl)cc1
0.951
